# Tested on: MCF7 breast
# experimental details: NCI-60 one-dose screen, 48 h (100 = growth as untreated, 0 = no growth, -100 = all killed)
# experimental context: 10 µM unless noted
The panel holds about 83,000 compounds, 20% with a hit somewhere; the sample as a whole holds those more often.
Parameter growth: see the listing below.
Kindly provide the numeric value in % only, without the unit symbol.

Some solved entries appear below for comparison.
CCCCC1=C(P(=O)(O)O)N[C@H](C(=O)O)CS1 :: 89.3
CCOC(=O)c1nn(-c2ccc(S(N)(=O)=O)cc2)c2nc(C)cc(=O)n12 :: 92.4
Cn1c(=O)cc2c3c(c(NCCCO)ccc31)C(=O)c1ccccc1-2 :: 27.6

-- ask Would you mind telling me what growth value was observed for COc1cc2c(c(OC)c1OC)CCC(c1cccc(C(=O)Nc3ccc(C#N)cc3)c1)O2 (stereo not given) ?
-- reply 32.5

-- ask Same for COc1ccc(OC)c(-c2nc(SCC(=O)c3ccc(C#N)cc3)[nH]c(=O)c2C#N)c1
-- reply 100
